Assay: small-molecule binders of probe aNOTCH2, primary screen, biochemical, small-molecule microarray, 635/667 nm fluorescence (AID 1121);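 note: score merges feature fluorescence read at 667 nm with its signal to noise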
Details: higher = more signal
Returns one of 1 (yes) or 0 (no); 1 (yes) when composite z-score is >= -0.02.

O=C1O[C@@H](c2ccccc2)[C@@H](c2ccccc2)N2[C@@H](c3ccccc3OCCO)[C@]3(C(=O)Nc4ccc(C#CCCO)cc43)[C@@H](C(=O)N3CCCCCCC3)[C@H]12
1 (yes)
NC(=O)N1C(=O)C2C(C1=O)C1C=C(CCCO)C2C(c2cccs2)N1Cc1cccc(OC(F)(F)F)c1 (stereo unspecified)
0 (no)

Determine whether measured composite z-score meets or exceeds -0.02 for CCOc1cc(C(O)C2C=CC3C(=O)N(C)C(=O)C3N2Nc2ccccc2)ccc1O (stereo unspecified)
1 (yes)

Determine whether measured composite z-score meets or exceeds -0.02 for CC(C)Cc1ccc(CN2CC[C@@H](NC(=O)Nc3ccccc3)C2)cc1
0 (no)

Determine whether measured composite z-score meets or exceeds -0.02 for C=CCC(OC(C)=O)[C@@H]1[C@@H](N(Cc2ccc(-c3ccccc3)cc2)C(=O)Cc2ccc(F)cc2)c2cc(OCCCO)ccc2N1C(=O)Cc1ccc(OC)cc1 (stereo partly specified)
0 (no)

Determine whether measured composite z-score meets or exceeds -0.02 for CCOC(=O)C1CCCCN1 (stereo unspecified)
1 (yes)

Determine whether measured composite z-score meets or exceeds -0.02 for Cc1ccc(S[C@]2(C(=O)NCCCN(C)C)CC(=O)N(C3CCCCC3)[C@@H]2c2ccc(CO)cc2)cc1
0 (no)

Determine whether measured composite z-score meets or exceeds -0.02 for CN(C)C(=O)C1N=C(c2ccc(OCCCO)cc2)N(c2ccccc2)O1 (stereo unspecified)
1 (yes)

Determine whether measured composite z-score meets or exceeds -0.02 for COC(=O)c1c(CC[C@@H](CO)NC(=O)N2CCC[C@H]2Cn2cc(Cc3ccccc3)nn2)oc(C(C)=O)c1C(=O)OC
0 (no)

Determine whether measured composite z-score meets or exceeds -0.02 for CN1C(=O)C2C=CC(C(O)c3ccccn3)N(N(c3ccccc3)c3ccccc3)C2C1=O (stereo unspecified)
1 (yes)

Determine whether measured composite z-score meets or exceeds -0.02 for O=C1N(Cc2ccccc2)Cc2ccccc2[C@@H]2OC(c3ccc(OCCCO)cc3)=N[C@]12CCS(=O)(=O)c1ccccc1
1 (yes)

Determine whether measured composite z-score meets or exceeds -0.02 for COc1ccc(C#Cc2ccc3c(c2)[C@]2(C(=O)N3)[C@H](c3ccc(O)cc3)N3[C@H](c4ccccc4)[C@H](c4ccccc4)OC(=O)[C@H]3[C@@H]2C(=O)O)cc1
1 (yes)

Determine whether measured composite z-score meets or exceeds -0.02 for C[C@@H]1NC(=O)[C@@]23C(=O)N[C@@H](Cc4ccccc4)C2[C@H](C)[C@@]2(C)O[C@H]2C3/C=C/C/C=C\CNC(=O)[C@@H]2CCCN2C1=O (stereo partly specified)
0 (no)

Determine whether measured composite z-score meets or exceeds -0.02 for CCOC(=O)C1=CC[C@@H](c2ccccc2C(F)(F)F)N(S(=O)(=O)c2ccc(C)cc2)[C@H]1c1ccc(C#N)cc1
0 (no)

Determine whether measured composite z-score meets or exceeds -0.02 for CCCCC(=C=CC[C@@H](O)c1ccccc1OCCO)C[C@@H](O)COCc1ccccc1
0 (no)

Determine whether measured composite z-score meets or exceeds -0.02 for CCOC(=O)C[C@H]1[C@H](OC(=O)c2ccc(C(=O)c3ccccc3)cc2)[C@@H](NC(=O)Cc2ccc(OC)cc2)c2cc(OCCCO)ccc2N1C(=O)c1ccccc1
0 (no)

* * *

Assay: yeast growth modulation, basal conditions, primary screen, YJM789 clinical isolate, OD600, 24 h (AID 1089);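 note: growth of clinical yeast isolate S. cerevisiae YJM 789 seeded 1000 cells per well; test concentration not given here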
Conditions: S. cerevisiae YJM789 growth, higher = more signal, called active from +8 up or from −8 down
The source made the active and inactive calls.
MEASUREMENT KIND: z-score

Use the examples below as a reference point.
CC(C)(C)N1CC=CC23O[C@@H]4C=CCOC(=O)[C@@H]4[C@H]2C(=O)N(CCCCCCO)[C@@H]3C1=O (stereo partly specified)
-1.54 (inactive)
CC(CO)N1C(=O)[C@@H]2[C@H]3C(=O)OCC=C[C@H]3OC23C=CCN(Cc2ccccc2)C(=O)[C@@H]13 (stereo partly specified)
-0.163 (inactive)
[N-]=[N+]=NCc1ccccc1C[C@]1(C(N)=O)N=C(c2ccc(OCCCO)cc2)O[C@H]1c1ccccc1
0.458 (inactive)
COc1cccc(/C=C/C=O)c1
1.95 (inactive)

// COC(=O)[C@@]1(Cc2ccc(F)cc2)[C@H]2c3cc(C(=O)N4CCCC4)n(CCc4ccc(O)c(O)c4)c3C[C@H]2CN1C(=O)c1ccccc1 : z-score value = 1.34 (inactive)

// O=C1C=C(c2ccccc2)C(=O)c2ccc([C@H]3Oc4ccccc4S(=O)(=O)N4CCC[C@@H]34)cc21 : z-score value = -0.818 (inactive)

// COC(=O)[C@@]1(Cc2ccc(OC)cc2)[C@H]2c3cc(C(=O)N4CCCC4)n(Cc4c(-c5ccccc5)noc4C)c3C[C@H]2CN1C(=O)c1ccccc1 : z-score value = 0.729 (inactive)

// CN1C(=O)C2C=CC(C(O)C#Cc3ccccc3)N(Nc3ccccc3)C2C1=O (stereo unspecified) : z-score value = 0.415 (inactive)

// COc1cc2c(cc1O)C(C)N(Cc1ccc([N+](=O)[O-])o1)CC2 (stereo unspecified) : z-score value = -0.337 (inactive)

// [N-]=[N+]=NCc1ccccc1C[C@@]1(C(=O)NCc2ccccc2)N=C(c2ccc(OCCCO)cc2)O[C@@H]1c1ccccc1N=[N+]=[N-] : z-score value = -1.38 (inactive)

// O=C1C2C=CC(C(O)c3ccc(F)cc3)N(n3cnnc3)C2C(=O)N1Cc1ccccc1 (stereo unspecified) : z-score value = 0.271 (inactive)

// CCCCC(O)C1C=CC2C(=O)N(c3ccccc3)C(=O)C2N1Nc1ccc(C(C)C)cc1 (stereo unspecified) : z-score value = 0.603 (inactive)

// CCCCN1CC=CC23O[C@@H]4/C=C\CCC(C)OC(=O)C4[C@H]2C(=O)N(C(CO)C(C)C)[C@@H]3C1=O (stereo partly specified) : z-score value = -0.824 (inactive)

// C=C(C)c1cc2c(c(CCCCCC)n1)[Si](C(C)C)(C(C)C)OC2 : z-score value = 1.21 (inactive)

// O=C1NC(=O)C2C1C=CC(C(O)c1c(F)cccc1Cl)N2Nc1ccc(Cl)cc1Cl (stereo unspecified) : z-score value = -20.9 (active)

// C=CCC(OC(C)=O)[C@@H]1[C@@H](N(Cc2cc3ccccc3o2)C(=O)Cc2ccc(F)cc2)c2cc(OCCCO)ccc2N1C(=O)c1ccc2ccccc2c1 (stereo partly specified) : z-score value = -0.313 (inactive)

// O=C1O[C@H](c2ccccc2)[C@H](c2ccccc2)N2[C@H]1[C@@H](C(=O)Nc1nc3ccccc3s1)[C@]1(C(=O)Nc3ccc(C#CCCO)cc31)[C@H]2c1ccc(O)cc1 : z-score value = 0.758 (inactive)

// CCOc1cc(C(O)C2C=CC3C(=O)N(c4ccccc4)C(=O)C3N2Nc2ccc(C#N)cc2)ccc1O (stereo unspecified) : z-score value = 0.453 (inactive)

// [N-]=[N+]=Nc1ccccc1[C@H]1OC(c2ccc(OCCCO)cc2)=N[C@@]1(CCS(=O)(=O)c1ccccc1)C(=O)NCCN1CCOCC1 : z-score value = 0.299 (inactive)

// Cc1ccc(S[C@]2(C(=O)NCC(F)(F)F)CC(=O)N(Cc3ccccc3C(F)(F)F)[C@@H]2c2ccc(CO)cc2I)cc1 : z-score value = -1.54 (inactive)

// O=C1c2ccccc2[C@](Cc2ccccc2I)(C(=O)NCC(F)(F)F)[C@H](c2ccc(CO)cc2)N1C1CCCCC1 : z-score value = 0.0808 (inactive)

// CCC(CC)C(O)C1C=CC2C(=O)N(c3ccccc3)C(=O)C2N1Nc1ccc(C(C)C)cc1 (stereo unspecified) : z-score value = 0.727 (inactive)

// C=CCOC(=O)[C@H]1[C@@H]2C(=O)O[C@@H](c3ccccc3)[C@@H](c3ccccc3)N2[C@@H](c2ccc(OCCOC(=O)[C@@H]3C[C@@H]4C(=O)N5CCC[C@H]5C(=O)N4[C@@H]3c3ccc(O)cc3)cc2)[C@]12C(=O)Nc1ccc(I)cc12 : z-score value = 0.882 (inactive)

// OCC1CC(c2ccccc2)=NO1 (stereo unspecified) : z-score value = -0.248 (inactive)

// CC(C)C(=C=CC[C@H](O)c1cccc(OCCO)c1)C[C@H](O)c1cc(Cl)cc(Cl)c1O : z-score value = 0.834 (inactive)

// COC(=O)[C@@]1(Cc2ccc(OC)cc2)[C@H]2c3cc(C(=O)N4CCCC4)n(Cc4cccc5ccccc45)c3C[C@H]2CN1C(=O)c1ccccc1 : z-score value = 0.221 (inactive)

// C=C(COC)/C(=C/C[C@H](OC(C)=O)c1ccc(OCCO)cc1)c1cc(C(=O)OC)ccc1OC : z-score value = 0.092 (inactive)

// CC(C)[Si](C#C[Si](C(C)C)(C(C)C)C(C)C)(O[C@H](C)c1cn([C@H](CO)Cc2ccccc2)nn1)C(C)C : z-score value = -0.653 (inactive)
